- Assay Notes: in vivo
- Set-up: species or system Beagle dogs
- Measurement Conditions: both sexes, beagle, dog, in vivo, Average tissue concentration, Intestinal wall

{"Compound": "COc1cc(/C=C/C(=O)CC(=O)/C=C/c2ccc(O)c(OC)c2)ccc1O [Curcumin, reference compound]", "concentration at 15 min (ng/g)": 1.14}

###

- Assay Notes: Tissue distribution of curcumin and THC at necropsy 15 minutes post-infusion
- Parameters: species or system Beagle dogs
- Measurement Conditions: both sexes, beagle, dog, in vivo, 10 mg/kg, 2 hour infusion; Plus H3PO4; read-out: Tissue level, Muscle

{"Molecule": "COc1cc(CCC(=O)CC(=O)CCc2ccc(O)c(OC)c2)ccc1O [THC, tetrahydrocurcumin]", "concentration at 15 min [ng/g]": 4.19}

###

- Assay Notes: Tissue distribution of curcumin and THC at necropsy 15 minutes post-infusion
- Design: species or system Beagle dogs
- Measurement Conditions: both sexes, beagle, dog, in vivo, 10 mg/kg, 2 hour infusion; Plus H3PO4; read-out: Tissue level, Pancreas
Quantity Name: concentration at 15 min (ng/g)

{"Compound": "COc1cc(CCC(=O)CC(=O)CCc2ccc(O)c(OC)c2)ccc1O [THC, tetrahydrocurcumin]", "Quantity Name": "concentration at 15 min", "Unit": "ng/g", "Reported Measurement": 0.92}

###

- Assay Notes: Tissue distribution of curcumin and THC at necropsy 15 minutes post-infusion
- Design: species or system Beagle dogs
- Measurement Conditions: both sexes, beagle, dog, in vivo, 10 mg/kg, 8 hour infusion; No H3PO4; read-out: Tissue level, Lungs

{"Molecule": "COc1cc(CCC(=O)CC(=O)CCc2ccc(O)c(OC)c2)ccc1O [THC, tetrahydrocurcumin]", "Unit": "ng/g", "concentration at 15 min": 10.8}

###

- Assay Notes: Tissue distribution of curcumin and THC at necropsy 15 minutes post-infusion
- Design: species or system Beagle dogs
- Measurement Conditions: both sexes, beagle, dog, in vivo, 10 mg/kg, 8 hour infusion; No H3PO4; read-out: Tissue level, Pancreas
Quantity Name: concentration at 15 min (ng/g)

{"Compound": "COc1cc(CCC(=O)CC(=O)CCc2ccc(O)c(OC)c2)ccc1O [THC, tetrahydrocurcumin]", "Quantity Name": "concentration at 15 min", "Reported Measurement": 0.34}

###

- Assay Notes: in vivo
- Set-up: species or system Beagle dogs
- Measurement Conditions: both sexes, beagle, dog, in vivo, Kp [tissue]/[plasma], Intestinal Wall
Quantity Name: Kp at 2 h

{"Compound": "COc1cc(/C=C/C(=O)CC(=O)/C=C/c2ccc(O)c(OC)c2)ccc1O [Curcumin, reference compound]", "Reported Measurement": 0.0206}

###

- Assay Notes: in vivo
- Set-up: species or system Beagle dogs
- Measurement Conditions: both sexes, beagle, dog, in vivo, Kp [tissue]/[plasma], Heart

{"Compound": "COc1cc(/C=C/C(=O)CC(=O)/C=C/c2ccc(O)c(OC)c2)ccc1O [Curcumin, reference compound]", "Kp at 2 h": 0.0087}

###

- Assay Notes: Tissue distribution of curcumin and THC at necropsy 15 minutes post-infusion
- Parameters: species or system Beagle dogs
- Measurement Conditions: both sexes, beagle, dog, in vivo, 10 mg/kg, 2 hour infusion; No H3PO4; read-out: Tissue level, Heart

{"Compound": "COc1cc(CCC(=O)CC(=O)CCc2ccc(O)c(OC)c2)ccc1O [THC, tetrahydrocurcumin]", "concentration at 15 min": "2.51 ng/g"}

These data points were gathered from patent US9170257B2.
